Cited source: patent US11566007B2

A collection of compounds and their measured pIC50
molecular target: NRAS G12C (Homo sapiens (Human), UniProt P01111+P62937, G12C); assay: Ras-Raf (BRAF RBD) disruption / FRET / MOA assay, NRAS G12C; assay type: biochemical; conditions: read-out: IC50* NRAS G12C FRET data
Sequence (P01111 whole entry G12C): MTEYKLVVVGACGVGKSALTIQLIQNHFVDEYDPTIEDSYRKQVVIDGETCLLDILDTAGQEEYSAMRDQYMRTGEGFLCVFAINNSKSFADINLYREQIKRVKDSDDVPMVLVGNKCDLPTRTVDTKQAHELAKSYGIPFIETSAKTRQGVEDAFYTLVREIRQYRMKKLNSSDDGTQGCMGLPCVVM
Sequence (P62937 whole entry): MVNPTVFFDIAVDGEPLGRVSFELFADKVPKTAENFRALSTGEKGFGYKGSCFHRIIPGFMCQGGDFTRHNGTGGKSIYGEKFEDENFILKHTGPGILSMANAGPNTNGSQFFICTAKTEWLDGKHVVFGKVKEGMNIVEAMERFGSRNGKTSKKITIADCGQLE
pIC50: −log10 of the molar value.

Readout pIC50 for CCn1c(-c2cccnc2[C@H](C)OC)c2c3cc(ccc31)-c1cc(O)cc(c1)C[C@H](NC(=O)[C@H](C(C)C)N1CCC3(CN(C(=O)/C=C/CN(C)C)C3)C1=O)C(=O)N1CCC[C@H](N1)C(=O)OCC(C)(C)C2 (atropisomer, axis not shown) , test system NRAS G12C (Homo sapiens (Human), UniProt P01111+P62937, G12C), was > 8.00

pIC50 value, target or system NRAS G12C (Homo sapiens (Human), UniProt P01111+P62937, G12C), for CCn1c(-c2cccnc2[C@H](C)OC)c2c3cc(ccc31)N1CCO[C@@H](C[C@H](NC(=O)[C@H](C(C)C)N(C)C(=O)C3(F)CCN(C(=O)/C=C/CN(C)C)CC3)C(=O)N3CCC[C@H](N3)C(=O)OCC(C)(C)C2)C1 (atropisomer, axis not shown) : 7.00 to 8.00

The reported pIC50 value, NRAS G12C (Homo sapiens (Human), UniProt P01111+P62937, G12C), for `CCn1c(-c2cccnc2COC)c2c3cc(ccc31)-c1cc(O)cc(c1)C[C@H](NC(=O)[C@@H](C(C)C)N(C)C(=O)[C@H]1C[C@@H](C)N(C(=O)C#CCN(C)C)C1)C(=O)N1CCC[C@H](N1)C(=O)OCC(C)(C)C2` reads 7.00 to 8.00

Please examine the following record next.
# value of pIC50, NRAS G12C (Homo sapiens (Human), UniProt P01111+P62937, G12C), item CCn1c(-c2cccnc2COC)c2c3cc(ccc31)-c1cc(O)cc(c1)C[C@H](NC(=O)[C@H](C(C)C)N(C)C(=O)[C@H]1CCC(C(=O)/C=C\CN(C)C)C1)C(=O)N1CCC[C@H](N1)C(=O)OCC(C)(C)C2 (stereo partly shown) [Example A164] = 7.00 to 8.00

====

Target: KRAS G13D (Homo sapiens (Human), UniProt P01116+P62937, G13D)
Sequence (P01116-2 other isoform, or with tags, fused parts or gaps G13D): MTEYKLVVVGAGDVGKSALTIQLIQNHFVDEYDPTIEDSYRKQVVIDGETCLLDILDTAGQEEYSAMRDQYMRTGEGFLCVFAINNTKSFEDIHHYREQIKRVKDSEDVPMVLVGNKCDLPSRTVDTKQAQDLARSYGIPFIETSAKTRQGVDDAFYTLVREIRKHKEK
Sequence (P62937 whole entry): as the sequence (P62937 whole entry) above
Experiment: Ras-Raf (BRAF RBD) disruption / FRET / MOA assay, KRAS G13D
Format: biochemical
Details: read-out: IC50* KRAS G13D FRET data
Protocol: The purpose of this biochemical assay is to measure the ability of test compounds to facilitate ternary complex formation between a nucleotide-loaded Ras isoform and cyclophilin A; the resulting ternary complex disrupts binding to a BRAF^RBD construct, inhibiting Ras signaling through a RAF effector. Compound is present in plate wells as a 10-point 3-fold dilution series starting at a final concentration of 30 μM. […]
pIC50: −log10 of the molar value.
Here the recorded pIC50 is given for each entry.

Sure, the documented pIC50 for C=CC(=O)N1CC[C@@]2(CCN(C(=O)N(C)[C@H](C(=O)N[C@H]3Cc4nc(cs4)-c4ccc5c(c4)c(c(-c4cccnc4[C@H](C)OC)n5CC)CC(C)(C)COC(=O)[C@@H]4CCCN(N4)C3=O)C(C)C)C2)C1 (atropisomer, axis not shown) is 6.00 to 7.00

Kindly review the next compound as well.
# pIC50 of C=CC(=O)N1CC[C@@H]2[C@H]1CN2C(=O)N(C)[C@H](C(=O)N[C@H]1Cc2nc(cs2)-c2ccc3c(c2)c(c(-c2cccnc2[C@H](C)OC)n3CC)CC(C)(C)COC(=O)[C@@H]2CCCN(N2)C1=O)C(C)C (atropisomer, axis not shown) = 5.00 to 6.00
